Tested on: CIT
setup.conditions: concentration: 1 μM, replicates: in singlicate; n = 1;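 further: KINOMEscan kinase panel screen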
observation.type: %Inh (%)
Give just the numeric value; % need not be written.

Consider the worked cases shown below.
CS(=O)(=O)CCNCc1nc(-c2ccc3ncnc(Nc4ccc(OCc5ccccc5)c(Cl)c4)c3c2)cs1.Cl : 38
Cc1c(Cn2c3ccccc3n3c(=O)cc(N4CCOCC4)nc23)cccc1C(F)(F)F : 30
COc1cc2ncnc(Nc3cccc(Br)c3)c2cc1OC.Cl : 53

Query string: I would be grateful if you could share the reported %Inh for `Cc1ccccc1Cn1ccn2c(=O)cc(N3CCOCC3)nc12` .
Result string: 3

Query string: Consider the compound shown here: `Cl.Cl.Cl.N#Cc1ccc(CCNc2nccc(-c3cccc(CN4CCNCC4)c3)n2)cc1` What is its recorded %Inh?
Result string: 82

Query string: Name the recorded %Inh for `CS(=O)(=O)CCNCc1nc(-c2ccc3ncnc(Nc4ccc5c(cnn5Cc5ccccc5)c4)c3c2)cs1.Cl.Cl` .
Result string: 34

Query string: Requested field: %Inh. Item: COC(=O)C(Cc1ccccc1)NC(=O)NC1CCN(c2ccnc(Nc3ccc(F)cc3)n2)C1 (centres unmarked)
Result string: 6

Query string: For the compound `Cc1ccccc1-c1cc(-c2c[nH]nc2-c2ccccn2)ccn1` , what %Inh is on record?
Result string: 24

====

Test system: TTK
setup.conditions: concentration: 1 μM, replicates: in singlicate; n = 1
observation.type: %Inh (%)
# number only, unit % dropped from output

COc1cc2ncnc(Nc3cccc(Br)c3)c2cc1OC.Cl [GI230329] : 0
Cc1ccc(NC(=O)Nc2ccc(Cl)c(C(F)(F)F)c2)cc1-c1ccc(C(=O)Nc2ccncc2)cc1 [GSK1398470] : 32
COc1ccc(-c2coc3ccc(-c4nnc(C)o4)cc23)cc1 : 0
NS(=O)(=O)c1cccc(N/C=C2\C(=O)Nc3ccc(S(=O)(=O)Cc4c(Cl)cccc4Cl)cc32)c1 [GSK398099] : 0
CS(=O)(=O)CCNCc1nc(-c2ccc3ncnc(Nc4ccc5c(cnn5Cc5ccccc5)c4)c3c2)cs1.Cl.Cl [GW569716] : 3
Cl.Cl.Cl.N#Cc1ccc(CCNc2nccc(-c3cccc(CN4CCNCC4)c3)n2)cc1 [GSK2137462] : 14
COC(=O)C(Cc1ccccc1)NC(=O)NC1CCN(c2ccnc(Nc3ccc(F)cc3)n2)C1 (stereo not shown) [GSK1379714] : 0
O=c1cc(N2CCOCC2)nc2n(Cc3cccc(Cl)c3Cl)c3ccccc3n12 [GSK2299009] : 8

Query string: Look at this molecule and give its reported %Inh. Cc1ccc(NC(=O)Nc2ccccc2)cc1-c1ccc(C(=O)Nc2ccncc2)cc1 [GSK1398471]
Result string: 2

Query string: Which %Inh is listed for COc1cccc(CNC(=O)NC2CCN(c3ccnc(Nc4ccc(F)cc4)n3)C2)c1 (stereo not shown) [GSK1379723] ?
Result string: 17

Query string: Which measured %Inh value corresponds to CCn1c(-c2c(N)noc2C)nc2cnccc21 [SB-737856] ?
Result string: 0

Query string: Would you kindly share the measured %Inh for Cc1ccccc1-c1cc(-c2c[nH]nc2-c2ccccn2)ccn1 [GW680061] ?
Result string: 6

Query string: Could you tell me which %Inh is on file for Fc1ccc(-c2nc3n(c2-c2ccncc2)CCS3)cc1 [GI98581] ?
Result string: 0

Query string: Look up %Inh: `COc1ccc(CSc2nnc(-c3ccc4c(c3)CCO4)o2)cc1`
Result string: 0

Query string: // lookup %Inh for COC(=O)c1cccc(NC(=O)NC2CCN(c3ccnc(Nc4ccc(F)cc4)n3)C2)c1 (stereo not shown) [GSK1379725]
Result string: 0

Query string: Could you tell me which %Inh is on file for Cn1cnc2c(N)ncnc21 [SKF-97623] ?
Result string: 0
